Target: human MCH-1R (human, UniProt Q99705 1-353)
Sequence (Q99705 whole entry, form in doubt): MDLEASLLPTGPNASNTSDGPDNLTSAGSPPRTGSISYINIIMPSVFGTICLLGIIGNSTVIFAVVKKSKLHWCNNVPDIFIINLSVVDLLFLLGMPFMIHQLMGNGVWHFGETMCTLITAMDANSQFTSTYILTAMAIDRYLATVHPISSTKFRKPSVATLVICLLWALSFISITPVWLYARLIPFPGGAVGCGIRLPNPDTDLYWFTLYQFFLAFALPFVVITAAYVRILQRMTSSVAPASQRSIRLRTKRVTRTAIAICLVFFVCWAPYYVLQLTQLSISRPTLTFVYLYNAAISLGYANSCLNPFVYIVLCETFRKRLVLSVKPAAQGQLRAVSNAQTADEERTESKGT
Test: cell-based or functional assay
Bridges are numbered along the chain shown (N, C = ends). Where no end group is shown, it is not given here.
endpoint: Activation % at 10 µM (aequorin functional assay) (%)

-- ask Find the recorded Activation % at 10 µM (aequorin functional assay) belonging to DFDMLRCMLGRVYAPCWQV (disulfide 7-16, also called Ala^14) [SEQ. ID. NO. 52] and report it.
-- reply 97

-- ask Repeat with DFDMLRCMLGRVYRPCWQA (disulfide 7-16, also called Ala^19) [SEQ. ID. NO. 56]
-- reply 100

-- ask Repeat with DFDMLRCMLGRVYRACWQV (disulfide 7-16, also called Ala^15) [SEQ. ID. NO. 53]
-- reply 99

-- ask Repeat with DADMLRCMLGRVYRPCWQV (disulfide 7-16, also called Ala^2) [SEQ. ID. NO. 42]
-- reply 97

-- ask Repeat with DFDMLRCMAGRVYRPCWQV (disulfide 7-16, also called Ala^9) [SEQ. ID. NO. 48]
-- reply 96
